Assignment: determine reported inhibition at 0.5 µM for the given compounds.
- TESTED_SYSTEM: Flt 1(h) (Homo sapiens)
- Construct: purchased Upstate Biotechnology (Dundee, UK), KinaseProfiler service
- Sequence (P17948 27-1338): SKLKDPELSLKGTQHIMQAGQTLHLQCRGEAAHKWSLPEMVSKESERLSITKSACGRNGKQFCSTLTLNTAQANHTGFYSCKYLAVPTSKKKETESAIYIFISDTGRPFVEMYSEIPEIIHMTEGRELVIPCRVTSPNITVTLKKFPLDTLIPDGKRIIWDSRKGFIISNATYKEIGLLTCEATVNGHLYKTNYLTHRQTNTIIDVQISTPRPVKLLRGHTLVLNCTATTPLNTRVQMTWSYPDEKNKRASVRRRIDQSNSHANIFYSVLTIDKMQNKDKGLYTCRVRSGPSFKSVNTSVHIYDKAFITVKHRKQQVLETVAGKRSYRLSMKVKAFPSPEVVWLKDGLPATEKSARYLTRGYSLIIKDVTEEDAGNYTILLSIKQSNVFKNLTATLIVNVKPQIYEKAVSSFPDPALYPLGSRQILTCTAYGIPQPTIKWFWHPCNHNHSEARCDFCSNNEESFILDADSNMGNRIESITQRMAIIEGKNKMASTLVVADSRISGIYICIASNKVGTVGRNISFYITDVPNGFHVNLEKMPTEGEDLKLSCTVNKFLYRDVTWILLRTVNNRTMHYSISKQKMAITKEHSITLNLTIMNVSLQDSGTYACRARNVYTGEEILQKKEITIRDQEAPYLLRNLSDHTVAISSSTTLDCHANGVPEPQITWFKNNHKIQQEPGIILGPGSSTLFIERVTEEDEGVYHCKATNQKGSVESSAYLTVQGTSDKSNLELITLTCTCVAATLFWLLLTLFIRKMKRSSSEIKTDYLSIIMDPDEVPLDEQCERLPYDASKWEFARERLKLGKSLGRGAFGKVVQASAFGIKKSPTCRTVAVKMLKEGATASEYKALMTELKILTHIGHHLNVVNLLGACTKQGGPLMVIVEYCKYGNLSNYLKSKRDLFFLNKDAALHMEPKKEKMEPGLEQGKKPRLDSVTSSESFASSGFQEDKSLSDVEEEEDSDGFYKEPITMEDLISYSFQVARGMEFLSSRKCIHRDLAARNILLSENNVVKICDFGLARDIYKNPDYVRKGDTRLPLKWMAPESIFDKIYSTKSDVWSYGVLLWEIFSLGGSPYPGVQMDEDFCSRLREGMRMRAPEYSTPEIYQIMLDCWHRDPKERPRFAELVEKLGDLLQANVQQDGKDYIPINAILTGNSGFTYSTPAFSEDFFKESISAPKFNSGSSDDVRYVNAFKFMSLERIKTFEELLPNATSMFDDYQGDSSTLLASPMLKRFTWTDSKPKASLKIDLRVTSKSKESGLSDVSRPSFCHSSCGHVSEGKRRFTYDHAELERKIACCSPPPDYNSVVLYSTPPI
- PROTOCOL_DESCRIPTION: Upstate KinaseProfiler enzyme assay, Flt 1
- Assay type: biochemical
- PROTOCOL_CONDITIONS: 500 nM compound; read-out: Percent inhibition at 500 nM Flt 1(h)
I only need the number, in %, no unit after it.

Exercise: Recorded inhibition at 0.5 µM for C=CC(=O)Nc1ccc(Sc2ccnc(Nc3ccc(C(=O)OC)cc3)n2)cc1 , please?
Key: 76

Exercise: Recorded inhibition at 0.5 µM for C=CC(=O)Nc1ccc(Sc2nc(Nc3cccc(N4CCOCC4)c3)ncc2C)cc1 , please?
Key: 98

Exercise: Recorded inhibition at 0.5 µM for Cc1cc(N)ccc1Sc1nc(Nc2ccc(N3CCOCC3)cc2)ncc1C , please?
Key: 82

Exercise: Recorded inhibition at 0.5 µM for C=CC(=O)Nc1ccc(Sc2nc(Nc3ccc(OCCCN(CC)CC)cc3)ncc2C)cc1 , please?
Key: 100

Exercise: Recorded inhibition at 0.5 µM for Cc1cnc(Nc2ccc(N3CCOCC3)cc2)nc1Sc1c(C)cc(N)cc1C , please?
Key: 43

Exercise: Recorded inhibition at 0.5 µM for C=CC(=O)Nc1ccc(Sc2ccnc(Nc3cccc(S(N)(=O)=O)c3)n2)cc1 , please?
Key: 97

Exercise: Recorded inhibition at 0.5 µM for C=CC(=O)Nc1ccc(Sc2nc(Nc3cccc(N4CCN(C)CC4)c3)ncc2C)cc1 , please?
Key: 100

Exercise: Recorded inhibition at 0.5 µM for Cc1cnc(Nc2ccc(N3CCOCC3)cc2)nc1Sc1ccc(N)cc1 , please?
Key: 93

Exercise: Recorded inhibition at 0.5 µM for C=CC(=O)N(C)c1ccc(Sc2nc(Nc3ccc(N4CCOCC4)cc3)ncc2C)cc1 , please?
Key: 95

Data provenance is patent US8846704B2.
